ASSAY NAME: Mouse pharmacokinetic assay (intragastric administration, plasma HPLC-MS/MS)
Type: in vivo
ASSAY SETUP: mouse, po; ICR mice, intragastric, 10 mg/kg, plasma; read-out: AUC0-24 h
QUANTITY MEASURED: AUC(0-t) (ng·h/mL)
Report as a plain number; the unit ng·h/mL is understood.

Entry "[2H][C@@]1(N)c2ccccc2OC12CCN(c1nc(N)c(Sc3ccnc(N)c3Cl)nc1C(C)=O)CC2" needs its AUC(0-t) filled in; supply it. 18300

----------
MEASUREMENT TARGET: hERG channel (Homo sapiens (Human))
Sequence (Q12809 whole entry): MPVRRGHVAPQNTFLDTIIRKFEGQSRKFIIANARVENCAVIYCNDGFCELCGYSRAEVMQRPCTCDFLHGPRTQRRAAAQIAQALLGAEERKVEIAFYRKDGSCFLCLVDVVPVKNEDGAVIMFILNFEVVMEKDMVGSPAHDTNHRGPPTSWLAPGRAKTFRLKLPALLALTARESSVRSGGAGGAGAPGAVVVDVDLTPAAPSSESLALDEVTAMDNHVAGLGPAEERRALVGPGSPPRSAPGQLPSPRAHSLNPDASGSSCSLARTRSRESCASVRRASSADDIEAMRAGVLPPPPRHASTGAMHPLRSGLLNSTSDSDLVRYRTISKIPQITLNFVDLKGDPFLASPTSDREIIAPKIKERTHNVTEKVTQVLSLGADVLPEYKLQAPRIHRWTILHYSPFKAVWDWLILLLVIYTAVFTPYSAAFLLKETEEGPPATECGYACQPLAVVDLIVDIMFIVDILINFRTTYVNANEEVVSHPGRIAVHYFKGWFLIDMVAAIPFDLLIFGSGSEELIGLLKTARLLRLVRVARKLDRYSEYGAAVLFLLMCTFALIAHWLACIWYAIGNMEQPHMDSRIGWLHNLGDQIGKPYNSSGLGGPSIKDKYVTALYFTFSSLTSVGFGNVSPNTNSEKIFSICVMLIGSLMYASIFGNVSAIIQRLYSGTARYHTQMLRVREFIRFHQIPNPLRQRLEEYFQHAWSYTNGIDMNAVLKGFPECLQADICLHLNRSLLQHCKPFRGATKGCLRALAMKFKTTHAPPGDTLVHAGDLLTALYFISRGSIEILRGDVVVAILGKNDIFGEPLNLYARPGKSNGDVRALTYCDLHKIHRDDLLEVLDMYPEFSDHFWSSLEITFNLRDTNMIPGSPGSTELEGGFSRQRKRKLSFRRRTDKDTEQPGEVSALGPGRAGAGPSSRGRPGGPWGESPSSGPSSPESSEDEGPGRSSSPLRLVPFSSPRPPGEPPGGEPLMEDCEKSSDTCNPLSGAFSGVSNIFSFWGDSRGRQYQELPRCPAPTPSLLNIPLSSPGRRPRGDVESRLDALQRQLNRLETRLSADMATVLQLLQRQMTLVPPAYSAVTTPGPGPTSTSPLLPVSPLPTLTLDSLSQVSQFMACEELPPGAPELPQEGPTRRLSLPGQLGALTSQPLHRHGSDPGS
ASSAY NAME: hERG assay, manual whole-cell patch clamp in CHO-K1 cell line stably expressing the hERG channel
ASSAY SETUP: CHO-K1 stable cell line, hERG tail current, 5 concentrations
Procedure: This assay included the following aspects: • A manual patch clamp technique was used to record the hERG current in the CHO-K1 cell line stably expressing the hERG channel; • The inhibition rate at each concentration was calculated based on the hERG tail current; • Each compound was tested at 5 concentrations to calculate the IC50 value; • Three cells were tested for each concentration; • One positive control drug was set. HERG currents were recorded using the whole-cell patch-clamp technique. […]
QUANTITY MEASURED: IC50

[2H][C@@]1(N)c2ccccc2OC12CCN(c1nc(N)c(Sc3ccnc(N)c3Cl)nc1C(C)=O)CC2
> 10 µM

Lab note: next molecule to report on.
Entry "CC(=O)c1nc(Sc2cccc(-c3ncco3)c2Cl)c(N)nc1N1CCC2(CC1)Oc1ccccc1[C@H]2N" needs its IC50 filled in; supply it. > 10 µM
